These entries and their values trace back to the METLIN SMRT retention time set (Domingo-Almenara et al. 2019).

assay: gradient 5% acetonitrile 3 min, to 50% in 2 min, to 85% in 15 min, held 3 min, 100 µL/min; conditions: column: Zorbax Extend-C18 2.1 x 50 mm; eluents: water / acetonitrile, 0.1% formic acid
Give measured RP-LC retention time for each item. Keep answers brief.
Value expressed in s; do not type the unit.

Sure, the documented RP-LC retention time for "O=c1c2cc(-c3ccc(F)cc3)nn2cnn1Cc1nc(-c2ccc(Br)cc2)no1" is 1210

Sure, the documented RP-LC retention time for "CCN1C(=O)C2(CCN(S(=O)(=O)c3cc(F)ccc3C)CC2)c2ccccc21" is 1130

Sure, the documented RP-LC retention time for Cc1ccc(-c2noc(CN3N=NC4C(=O)N(c5cccc(F)c5)C(=O)C43)n2)cc1 (centres undefined) is 1020

Sure, the documented RP-LC retention time for CCCCN1CCCC1CNC(=O)c1cc(C#N)c2ccccc2c1OC (centres undefined) is 781

Sure, the documented RP-LC retention time for "Cc1ccc(-c2nc(-c3ccc4c(c3)oc(=O)n4C)no2)cc1C" is 1180

Sure, the documented RP-LC retention time for "CC1CCN(C(=O)C2CCN(c3cncnc3N3CCN(C)CC3)CC2)CC1" is 558

Sure, the documented RP-LC retention time for "COc1ccc(CCS(=O)(=O)NCC2CCN(Cc3cccs3)CC2)cc1" is 564

Sure, the documented RP-LC retention time for O=C(NCC1CCCO1)c1ccccc1OCc1nc(-c2ccccc2)no1 (centres undefined) is 898

Sure, the documented RP-LC retention time for "O=c1n(Cc2cccc(C(F)(F)F)c2)nc2ccc(S(=O)(=O)N3CCCC3)cn12" is 938

Sure, the documented RP-LC retention time for "CC1(C)C(=O)NCCN1C(=O)CN1C(=O)c2ccccc2C1=O" is 594

Sure, the documented RP-LC retention time for "Cc1ccc(C(=O)N2C[C@@H](F)C[C@H]2C(=O)N2CCCCC2)c(C)c1" is 740

Sure, the documented RP-LC retention time for "CCn1cc(S(=O)(=O)Nc2ccc(OC)cc2)c2cccnc21" is 786

Sure, the documented RP-LC retention time for "COc1ccc(NC(=O)N2CC3CN(C)CC(C2)O3)cc1" is 560

Sure, the documented RP-LC retention time for "CCn1cnc(S(=O)(=O)N2CCC(C(=O)NCc3ccc(Br)cc3)CC2)c1" is 747
